Assay: growth inhibitors of H69AR lung tumor, primary screen, human, duplicate replicates (AID 580);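 further: 100% = mean luminescence of untreated wells and 0% = no signal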
Details: H69AR lung tumor cells viability, ATP luminescence, 72 h; at 10 µM; stronger effect = lower value
The threshold is 90%. Values of viability beneath it are tagged Satisfied; values meeting or exceeding it are tagged Not satisfied.

Illustrative cases are given below, each with its answer.
Molecule	Class Assignment
Cc1ccc(Cl)cc1N1CCN(C(=O)C2CCCN(S(=O)(=O)c3cnc[nH]3)C2)CC1 (centres undefined)	Satisfied
Cc1cnc(C(=O)Nc2ccc(-n3cnnn3)cc2)cn1	Not satisfied
Cc1cc(C2C(C#N)=C(N)SC(N)=C2C#N)c(C)s1	Not satisfied
CCn1c(=O)cc(SCC(=O)NCCN2CCN(Cc3ccccc3)CC2)c2ccccc21	Satisfied
Cc1cc(C)nc(NC(=O)c2c(-c3c(Cl)cccc3Cl)noc2C)n1	Satisfied
COC(=O)c1ccccc1NC(=O)c1ccc(COc2ccccc2)o1	Not satisfied

Input line: Find out if reported viability for CC(C)COc1ccc(C2NC(=O)NC2=O)cc1 (centres undefined) is less than 90%
Output line: Not satisfied

Input line: Find out if reported viability for CCOC(=O)CSc1nnc([C@H](C)NC(=O)OC(C)(C)C)o1 is less than 90%
Output line: Not satisfied

Input line: Find out if reported viability for COC(=O)Nc1ccc(C)cc1NC(=O)OC is less than 90%
Output line: Not satisfied

Input line: Find out if reported viability for COc1cc(-c2nc(-c3cccc(C(F)(F)F)c3)no2)cc(OC)c1OC is less than 90%
Output line: Not satisfied

----------
Listed below: viability values for each entry.
Assay: growth inhibitors of H69AR lung tumor, primary screen, human, duplicate replicates (AID 580);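 further: 100% = mean luminescence of untreated wells and 0% = no signal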
Conditions: H69AR lung tumor cells viability, ATP luminescence, 72 h; at 10 µM; stronger effect = lower value
Report the figure in % without appending any unit label.

Compound	Reading Unit	viability
Cc1nc(NS(=O)(=O)c2ccccc2)sc1NC(=O)OC(C)C	%	99.9

Input line: Given the entry COc1ccc(C(CNC(=O)CN2C(=O)NC3(CC(C)CC(C)(C)C3)C2=O)N2CCOCC2)cc1 (centres undefined) , report its measured viability.
Output line: 90.5

Input line: Given the entry COCCN1C(=O)C(=O)/C(=C(/O)c2cccc(OC)c2)C1c1ccncc1 (centres undefined) , report its measured viability.
Output line: 93

Input line: Given the entry Cc1nn(C)c(C)c1CNC(=O)c1cc2n(n1)C(C(F)(F)F)CC(c1cccs1)N2 (centres undefined) , report its measured viability.
Output line: 112

----------
Experiment: reversal of MRP1-mediated doxorubicin resistance, pilot screen, H69AR cells, doxorubicin co-treatment (AID 601)
Details: H69AR cells + 2 uM doxorubicin, CellTiter-Glo, 72 h; at 10 µM; stronger effect = higher value
Readout: differential viability (reversal) (%)
Report the figure in % without appending any unit label.

Example molecules with recorded differential viability (reversal):
Molecule	differential viability (reversal) (%)
Cn1c(CCNC(=O)c2ccco2)nc2cc(NC(=O)C3CCCCC3)ccc21	2.02
Cc1nc2nc(SCC(=O)NCc3ccco3)nn2c(C)c1Cc1ccccc1	-2
Cc1ccc(Cc2c(C)nc3c(C(=O)O)cnn3c2C)cc1	-10.4
COC(=O)c1c(NC(=O)c2ccc(S(=O)(=O)N3CCOCC3)cc2)sc2c1CCN(C)C2	-5.3
COc1cc(OC)cc(C(=O)NCc2n[nH]c(=S)n2-c2ccccc2OC)c1	0.11
COC(=O)C1=C(C)Nc2nnnn2C1c1cccs1 (configuration not stated)	3.09

Input line: Given the entry O=C1N(CCCCN2C(=O)C3(OCCO3)c3ccccc32)c2ccccc2C12OCCO2 , report its measured differential viability (reversal).
Output line: 11.1

----------
Assay: reversal of MRP1-mediated doxorubicin resistance, pilot screen, H69AR cells, doxorubicin co-treatment (AID 601)
Settings: H69AR cells + 2 uM doxorubicin, CellTiter-Glo, 72 h; measured here: viability with 2 uM doxorubicin; at 10 µM; stronger effect = lower value
The threshold is 90%. Values of viability beneath it are tagged class 1; values meeting or exceeding it are tagged class 0.

Illustrative cases are given below, each with its answer.
Structure Notation	Class Assignment
CC(C)OCCCNC(=O)c1cc2c(s1)CS(=O)(=O)C2	class 0
CC(=O)N1CCN(c2ccc(S(=O)(=O)N3CCCCC3)cn2)CC1	class 1

Below: the item to evaluate.
Input line: Find out if reported viability for CN(C(=O)c1ccno1)c1nnc(-c2cnccn2)s1 is less than 90%
Output line: class 0

----------
Listed below: viability values for each entry.
Experiment: SK-BR-3 cell growth inhibitors, pilot screen, 24 h, human (AID 572);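 further: compound exposure lasted between 18 and 24 h rather than exactly 24 h; 100% = carrier-treated control wells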
Details: SK-BR-3 viability, CellTiter-Glo luminescence, at 10 µM, stronger effect = lower value
Report the figure in % without appending any unit label.

Example compounds with recorded viability:
Compound	Reading Unit	Value Measured
CCNS(=O)(=O)c1c(C)cc(N2CCCC2=O)cc1C	%	95.5
Cc1ccc(NC(=O)CCC(=O)OCC(F)(F)C(F)F)cc1	%	98
C/C=C(\C)c1nnc(NC(=O)C(C)C)s1	%	92.5
Cc1cc(C(=O)Nc2ccccc2C#N)n(-c2ccccc2)n1	%	97.5
CCn1nc(C(=O)OCC(=O)c2cc(C)n(Cc3cccs3)c2C)c2ccccc2c1=O	%	93.5

Input line: Given the entry COC(=O)C1=C(C)OC(N)=C(C#N)C1c1ccccc1 (configuration not stated) , report its measured viability.
Output line: 94.5

Input line: Given the entry c1ccc(Cn2nnc3c(N4CCC5(CC4)OCCO5)ncnc32)cc1 , report its measured viability.
Output line: 105

----------
Test: 384-well plate pilot, post-Golgi transport modulator project, inhibition of yeast transport mutant growth (AID 636)
Settings: absorbance 615 nm, about 18 h, stronger effect = higher value
The source made the active and inactive calls. Rule as the data show it: active = inhibition above about 31%; inactive = the rest.
Listed below: inhibition values for each entry.

Compound	Value Measured
O=C(Nc1cccc2ccccc12)N1CCOCC1	-2.95% (inactive)
COC(=O)C1(C)NC(c2ccco2)C2C(=O)N(c3ccc(C)cc3)C(=O)C21 (stereo not given)	-5.27% (inactive)

Input line: Given the entry CN(C(=O)c1ccno1)c1nnc(-c2cnccn2)s1 , report its measured inhibition.
Output line: -6.22% (inactive)

Input line: Given the entry O=S(=O)(Cc1ccccc1)N1CCCCCC1 , report its measured inhibition.
Output line: -5.81% (inactive)

Input line: Given the entry CCN(CC)CCOc1cccc(C(C)C)c1 , report its measured inhibition.
Output line: 3.25% (inactive)

Input line: Given the entry Nn1c(SCC(=O)Nc2ccc(F)cc2)nnc1-c1cccnc1 , report its measured inhibition.
Output line: -0.26% (inactive)

Input line: Given the entry COc1cc2c(C)nc(C)c(C#N)c2cc1OC , report its measured inhibition.
Output line: -6% (inactive)

Input line: Given the entry C/C(=N\O)C(=O)NCc1ccccn1 , report its measured inhibition.
Output line: 4.61% (inactive)

----------
Assay: growth inhibitors of H69AR lung tumor, primary screen, human, duplicate replicates (AID 580);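 further: 100% = mean luminescence of untreated wells and 0% = no signal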
Conditions: H69AR lung tumor cells viability, ATP luminescence, 72 h; at 10 µM
Calls of active or inactive are those of the source.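 How the source made its calls: active means viability at or under a set limit in both replicates, limit being median viability minus 3 SD (cut at about 48% in these data, passing the limit was not always enough); inconclusive means at or under the limit in just one replicate; inactive means at or above the limit in both replicates.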
Use one of these outcomes when replying: 1 = active, 0 = inactive

Illustrative cases are given below, each with its answer.
Compound	Class Assignment
Cc1ccccc1-c1nc(CN2CCC(C(=O)NCCCN3CCOCC3)CC2)c(C)o1	0
Cn1c(=N)n(CC(=O)O)c2ccccc21	0
COCCn1c(C)cc(C(=O)CSc2nc3ccccc3c(=O)[nH]2)c1C	0

Input line: Hi, sorry to bother you, what did the test record for CC(C)C(=O)Nc1ccc2c(c1)nc1n2CCSC1 ?
Output line: 0

Input line: Hi, sorry to bother you, what did the test record for CCCC(=O)N(Cc1cc2ccccc2[nH]c1=O)c1ccccc1OC ?
Output line: 0

Input line: Hi, sorry to bother you, what did the test record for COc1cccc(N2CCN(CC(=O)Nc3nnc(-c4ccccc4)s3)CC2)c1 ?
Output line: 0

Input line: Hi, sorry to bother you, what did the test record for CCc1nnc(NC(=O)CSc2nnc3scc(-c4ccc(C)cc4)n23)s1 ?
Output line: 0

Input line: Hi, sorry to bother you, what did the test record for CSCCC(C(=O)Nc1ccc2c(c1)OCO2)N1C(=O)c2ccccc2C1=O (stereo not given) ?
Output line: 0

Input line: Hi, sorry to bother you, what did the test record for CCN1CCN(C(c2ccc(F)cc2)c2nnnn2Cc2cccs2)CC1 (stereo not given) ?
Output line: 0

----------
Test: reversal of MRP1-mediated doxorubicin resistance, pilot screen, H69AR cells, doxorubicin co-treatment (AID 601)
Details: H69AR cells + 2 uM doxorubicin, CellTiter-Glo, 72 h; at 10 µM; stronger effect = higher value
Listed below: differential viability (reversal) values for each entry.
Report the figure in % without appending any unit label.

Compound	Reading Unit	Value Measured
COC(=O)Cn1c2c(c3cc(C)ccc31)CCCC2	%	8.28

Input line: Given the entry COc1cccc(NC(=O)N2CCN(C(=O)C(Cc3ccc(OC)c(OC)c3)NC(C)=O)CC2)c1 (stereo not drawn) , report its measured differential viability (reversal).
Output line: 2.21

Input line: Given the entry COc1ccc(NC(C)=O)cc1NC(=O)CN1CCN(c2ccccn2)CC1 , report its measured differential viability (reversal).
Output line: 5.82

Input line: Given the entry COc1cc(OC)nc(NC(=O)CSc2nc3ccccc3o2)n1 , report its measured differential viability (reversal).
Output line: -2.58

Input line: Given the entry O=C(/C=N/O)Nc1cccnc1 , report its measured differential viability (reversal).
Output line: -6.35

Input line: Given the entry O=C(O)CCCNS(=O)(=O)c1ccc(NCc2ccccc2)c(C(=O)O)c1 , report its measured differential viability (reversal).
Output line: 1.6

Input line: Given the entry COc1ccc2nc(CC(C)(C)CC(=O)O)c[n+]([O-])c2c1 , report its measured differential viability (reversal).
Output line: 9.58

Input line: Given the entry Clc1ccc(SCCn2ccnc2)cc1 , report its measured differential viability (reversal).
Output line: 11.8

Input line: Given the entry CCNc1nc(OC)nc(Oc2ccc(=O)n(-c3ccccc3)n2)n1 , report its measured differential viability (reversal).
Output line: 10.6
